system: Tobacco mosaic virus; experiment: Antiviral activity against TMV assessed as protection effect against viral infection at 500 mg/L; type: functional, organism-based
recordedMetric: Activity

{"molecule": "C/C=C/C=C/C(=O)O/N=C/C1C(C)=NN(c2ccc(C)cc2)C1Sc1ccc(F)cc1 (stereo not given)", "recordedMetric": "Activity", "obsValue": "26%"}
{"molecule": "CC1=NN(c2ccc(Cl)cc2)C(Sc2ccc(F)cc2)C1/C=N/OC(=O)c1ccccc1 (stereo not given)", "recordedMetric": "Activity", "obsValue": "35%"}
{"molecule": "CCCCCC(=O)O/N=C/C1C(C)=NN(c2ccccc2)C1Sc1ccc(F)cc1 (stereo not given)", "recordedMetric": "Activity", "obsValue": "28.9%"}
{"molecule": "C/C=C/C=C/C(=O)O/N=C/C1C(C)=NN(c2ccc(Cl)cc2)C1Sc1ccc(F)cc1 (stereo not given)", "recordedMetric": "Activity", "obsValue": "28.3%"}
{"molecule": "CCCCCC(=O)O/N=C/C1C(C)=NN(c2ccc(C)cc2)C1Sc1ccc(F)cc1 (stereo not given)", "recordedMetric": "Activity", "obsValue": "40.9%"}
{"molecule": "COc1ccc(SC2C(/C=N/OC(=O)c3ccccc3)C(C)=NN2c2ccc(Cl)cc2)cc1 (stereo not given)", "recordedMetric": "Activity", "obsValue": "27.6%"}
{"molecule": "CC1=NN(c2cccc(Cl)c2)C(Sc2ccc(F)cc2)C1/C=N/OC(=O)c1ccccc1 (stereo not given)", "recordedMetric": "Activity", "obsValue": "41%"}
{"molecule": "CC1=NN(c2ccccc2)C(Sc2ccc(F)cc2)C1/C=N/OC(=O)c1ccccc1 (stereo not given)", "recordedMetric": "Activity", "obsValue": "28.8%"}
{"molecule": "CCCC(=O)O/N=C/C1C(C)=NN(c2ccccc2)C1Sc1ccc(F)cc1 (stereo not given)", "recordedMetric": "Activity", "obsValue": "25.9%"}
{"molecule": "CC(=O)O/N=C/C1C(C)=NN(c2ccccc2)C1Sc1ccc(F)cc1 (stereo not given)", "recordedMetric": "Activity", "obsValue": "36.7%"}
